Test system: PPARg:RXRa IVT, anti-PPARg (NR concentration 270 nM, RXRa partner concentration 90 nM)
RUN_DESCRIPTION: PBM binding z-score (relative to random genomic background probes); higher = stronger binding; sequences stand for … in GC…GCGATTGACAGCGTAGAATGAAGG
Threshold rule: PBM binding z-score greater than or equal to 0.7 is True; below that, False.

>  <SEQUENCE_INPUT>
TTACCAAGGTGAAGGTCGTTCATCCCTCTGTAGA

>  <CLASS>
True

$$$$
>  <SEQUENCE_INPUT>
TCTTGTAGATCAATAGAGGCTAAGAAAGTGCGCT

>  <CLASS>
False

$$$$
>  <SEQUENCE_INPUT>
GAGACAGGGTCAGCTAGAGGCCAGAGTATGGAAA

>  <CLASS>
True

$$$$
>  <SEQUENCE_INPUT>
ACGGACAGGTGATGAAGGTAACTCAGGCTATCAT

>  <CLASS>
False

$$$$
>  <SEQUENCE_INPUT>
TCTGCTAGGTCAACGATGGCCAGCTAATCTGCTA

>  <CLASS>
True

$$$$
>  <SEQUENCE_INPUT>
GCTGGTAGGTCAACTGATGGTCAGCTAAAGCTCG

>  <CLASS>
True

$$$$
>  <SEQUENCE_INPUT>
CCTAGCAGGCCAATCTGGGTCACTCAGGGCTTGA

>  <CLASS>
True

$$$$
>  <SEQUENCE_INPUT>
TTACCAAGGTGAAGATCGTTGATCCCTCTGTAGA

>  <CLASS>
True

$$$$
>  <SEQUENCE_INPUT>
AGTCAAAGTTCACTAGGTAAAGTAAGATTCAGCT

>  <CLASS>
True

$$$$
>  <SEQUENCE_INPUT>
CGTCGAAGTTCAACTAAGGTAACGTAAAGCACGC

>  <CLASS>
True

$$$$
>  <SEQUENCE_INPUT>
GTACCAAGGAGAATAGGTCGTTGATGAGTAGGCG

>  <CLASS>
False

$$$$
>  <SEQUENCE_INPUT>
AGAATGAGGATAAGATCAGGGAAACAGAATACAT

>  <CLASS>
False

$$$$

The measured values listed here are drawn from the supplement of paper PMC6555819.
